Target: hROMK (hKir1.1) (Homo sapiens (Human), UniProt P48048)
Sequence (P48048 whole entry): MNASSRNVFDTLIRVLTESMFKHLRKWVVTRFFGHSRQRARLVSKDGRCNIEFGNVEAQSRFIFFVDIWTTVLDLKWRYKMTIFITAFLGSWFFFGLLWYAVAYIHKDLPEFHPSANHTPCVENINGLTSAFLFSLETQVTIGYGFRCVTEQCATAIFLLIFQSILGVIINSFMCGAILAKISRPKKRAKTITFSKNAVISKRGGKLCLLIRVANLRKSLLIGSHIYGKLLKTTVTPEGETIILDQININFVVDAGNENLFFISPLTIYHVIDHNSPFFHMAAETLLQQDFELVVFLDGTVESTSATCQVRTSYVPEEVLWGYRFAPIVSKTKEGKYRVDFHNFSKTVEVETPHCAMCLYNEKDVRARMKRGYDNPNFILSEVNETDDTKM
Assay: Thallium Flux Assay (ROMK channel functional thallium flux assay, FLIPR-Tetra)
Settings: HEK293 cells stably expressing hROMK (hKir1.1); 30 min incubation with test compound
observable: log10 IC50 (log10 of the value in nM)
The base-10 logarithm of IC50, taken with IC50 in nM, is what appears here.

Sample O=C1N(C2=CS(=O)(=O)CC2)CCC12CCN(C[C@H](O)c1ccc(-n3cnnn3)nc1)CC2 — what was its log10 IC50? 2.06

Repeat for the following molecule: Cc1nc(-n2cnnn2)ccc1C(O)CN1CCC2(CC1)CCN(C1=CS(=O)(=O)CC1)C2=O (stereo not shown) [Example 15] 1.75

Try this molecule next: Cc1nc(-n2cnnn2)ccc1C(O)CN1CCC2(CCCN(C3=CS(=O)(=O)CC3)C2=O)CC1 (stereo not shown) 1.95

Same for CC1=C(N2CCC3(CCN(CC(O)c4ccc(-n5cnnn5)cc4F)CC3)C2=O)CCC1=O (stereo not shown) 2.73

Now the molecule Cc1cc(-n2cnnn2)ccc1C(O)CN1CCC2(CC1)CCN(C1=CC(=O)CC1)C2=O (stereo not shown) 2.29

What about Cc1nc(-n2cnnn2)ccc1C(O)CN1CCC2(CC1)CC(=O)N(C1=CS(=O)(=O)CC1)C2 (stereo not shown) ? 2.78

What about this molecule? CC1=C(N2CCC3(CCN(CC(O)c4ccc(-n5cnnn5)nc4C)CC3)C2=O)CCC1=O (stereo not shown) 1.67

Follow-up entry: Cc1nc(-n2cnnn2)ccc1C(O)CN1CCC2(CC1)CC(=O)N(C1=CC(=O)CC1)C2 (stereo not shown) 2.55

What do we get for CC1=C(N2CCC3(CCN(CC(O)c4ccc(-n5cnnn5)cc4C)CC3)C2=O)CCC1=O (stereo not shown) [Example 27] ? 1.87

And what about the molecule Cc1c([C@@H](O)CN2CCC3(CC2)CCN(C2=CC(=O)CC2)C3=O)ccc2c1COC2=O ? 2.09

Also need CC1=C(N2CCC3(CCN(CC(O)c4ncc(-n5cnnn5)cc4C)CC3)C2=O)CCC1=O (stereo not shown) [Example 25] , thanks. 2.54

Moving on to O=C1C=C(N2CCC3(CCN(CC(O)c4cnc(-n5cnnn5)c(F)c4)CC3)C2=O)CC1 (stereo not shown) [Example 30] 2.62

Consider next the molecule Cc1nc(-n2cnnn2)ccc1C(O)CN1CCC2(CCCN(C3=CC(=O)CC3)C2=O)CC1 (stereo not shown) in the same way. 1.24

Try this molecule too: CC1=C(N2CCC3(CCN(CC(O)c4ccc(-n5cnnn5)nn4)CC3)C2=O)CCC1=O (stereo not shown) 2.00

Proceed to CC1=C(N2CCCC3(CCN(CC(O)c4ccc(-n5cnnn5)nc4C)CC3)C2=O)CCC1=O (stereo not shown) 2.81

Then CC1=C(N2CCC3(CCCN(CC(O)c4ccc(-n5cnnn5)nc4C)CC3)C2=O)CCC1=O (single isomer, unassigned) [Example 3B] ? 1.94

* * *

Target: hROMK (hKir1.1) (Homo sapiens (Human))
Assay: Thallium Flux Assay (ROMK channel functional thallium flux assay, FLIPR-Tetra)
Settings: HEK293 cells stably expressing hROMK (hKir1.1); 30 min incubation with test compound
// assign Fulfilled if IC50 falls strictly below 500 nM, else Not fulfilled (ties count as Not fulfilled)

For this compound, is IC50 lower than 500 nM? O=C1C=C(N2CCC3(CCN(CC(O)c4cnc(-n5cnnn5)c(F)c4)CC3)C2=O)CC1 (centres unmarked) [Example 31] Not fulfilled

Please do the same for O=C1C=C(N2CCCC3(CCN(CC(O)c4ccc(-n5cnnn5)cn4)CC3)C2=O)CC1 (centres unmarked) as well. Fulfilled

Repeat with CC1=C(N2CCC3(CCN(CC(O)c4ncc(-n5cnnn5)cc4C)CC3)C2=O)CCC1=O (centres unmarked) [Example 24] Fulfilled

Quick one: Cc1cc(-n2cnnn2)ccc1C(O)CN1CCC2(CCCN(C3=CC(=O)CC3)C2=O)CC1 (centres unmarked) Fulfilled

Again, but for CC1=C(N2CCC3(CCCN(CC(O)c4ccc(-n5cnnn5)nn4)CC3)C2=O)CCC1=O (centres unmarked) Not fulfilled

And the next one, O=C1C=C(N2CCC3(CCN(C[C@H](O)c4ccc(-n5cnnn5)nc4)CC3)C2=O)CC1 ? Fulfilled

Same read-out for O=C1C=C(N2CCC3(CCN(CC(O)c4ccc(-n5cnnn5)cc4F)CC3)C2=O)CC1 (centres unmarked) ? Fulfilled
